The reported measurements were obtained from ChEMBL document CHEMBL1126794.

Biological target: Serotonin 3 (5-HT3) receptor (Rattus norvegicus, UniProt P35563+Q9JJ16)
Sequence (P35563 whole entry): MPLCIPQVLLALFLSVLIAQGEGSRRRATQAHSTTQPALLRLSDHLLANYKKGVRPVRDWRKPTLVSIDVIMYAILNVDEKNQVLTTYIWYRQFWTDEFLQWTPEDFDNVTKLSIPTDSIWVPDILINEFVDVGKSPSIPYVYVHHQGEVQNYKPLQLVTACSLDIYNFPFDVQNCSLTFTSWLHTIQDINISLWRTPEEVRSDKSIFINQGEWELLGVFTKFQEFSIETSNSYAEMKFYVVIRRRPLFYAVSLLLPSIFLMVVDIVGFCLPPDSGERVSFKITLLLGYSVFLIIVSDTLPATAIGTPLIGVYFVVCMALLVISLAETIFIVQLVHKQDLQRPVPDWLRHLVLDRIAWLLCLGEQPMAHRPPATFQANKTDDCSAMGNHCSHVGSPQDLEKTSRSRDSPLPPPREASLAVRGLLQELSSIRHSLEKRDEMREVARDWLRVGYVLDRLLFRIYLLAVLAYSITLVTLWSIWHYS
Sequence (Q9JJ16 whole entry): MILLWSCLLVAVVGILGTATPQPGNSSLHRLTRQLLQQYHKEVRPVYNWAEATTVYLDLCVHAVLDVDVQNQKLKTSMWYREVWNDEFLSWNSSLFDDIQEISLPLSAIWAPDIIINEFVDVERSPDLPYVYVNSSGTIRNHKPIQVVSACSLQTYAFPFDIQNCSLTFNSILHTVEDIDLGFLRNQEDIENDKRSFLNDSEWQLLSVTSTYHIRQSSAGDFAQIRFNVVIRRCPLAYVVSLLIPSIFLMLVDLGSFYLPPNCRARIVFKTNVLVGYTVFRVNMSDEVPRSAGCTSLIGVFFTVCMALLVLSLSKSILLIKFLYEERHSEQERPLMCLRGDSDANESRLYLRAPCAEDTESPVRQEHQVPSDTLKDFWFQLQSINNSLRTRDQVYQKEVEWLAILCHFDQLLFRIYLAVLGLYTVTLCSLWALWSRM
Assay: Binding affinity against 5-hydroxytryptamine 3 (5-HT3) receptor in rat brain cortical membranes using radioligand [3H]quipazine
MEASURED_PARAMETER: log10 of Ki (log10 of the value in nM)
Please interpret these as log10 of Ki where Ki is in nM.

Study these solved cases before continuing.
The compound listed as CCCc1cn([C@@H]2CN3CCC2CC3)c(=O)c2ccccc12 shows log10 of Ki equal to 0.70

The compound listed as COc1cc(N)c(Cl)cc1C(=O)N[C@@H]1CN2CCC1CC2 shows log10 of Ki equal to -0.60

The compound listed as O=C(NC1CN2CCC1CC2)c1c2n(c3ccccc13)CCCC2 (centres undefined) shows log10 of Ki equal to 0.40

The compound listed as Cc1cccc2c1CCN([C@@H]1CN3CCC1CC3)C2=O.Cl shows log10 of Ki equal to -0.50

The compound listed as COc1cc(N)c(Cl)cc1C(=O)N[C@H]1CN2CCC1CC2 [(R)ZACOPRIDE] shows log10 of Ki equal to 0.50

Next:
The compound listed as O=C(N[C@@H]1CN2CCC1CC2)c1c2n(c3ccccc13)CCCCC2 shows log10 of Ki equal to 0.70

The compound listed as Cl.O=C1c2cccc3c2[C@H](CCC3)CN1[C@@H]1CN2CCC1CC2 [PALONOSETRON HYDROCHLORIDE] shows log10 of Ki equal to -1.40

The compound listed as Cl.O=c1c2cccc3c2c(cn1C1CN2CCC1CC2)CC3 (centres undefined) shows log10 of Ki equal to -0.20

The compound listed as CCc1cccc2c1CCN(C1CN3CCC1CC3)C2=O.Cl (centres undefined) shows log10 of Ki equal to -0.70
